# assay target: human orexin 1 receptor (Homo sapiens)
# Construct: expressed in transfected cells
# procedure details: Radioligand binding assay ([125I]orexin A competition), human orexin 1 receptor
# run conditions: radioligand [125I]orexin A instead of [3H]-SB649868; read-out: Binding hOx1R Kd
pKd: −log10 of the molar value.
outcome measure: pKd

>>> assay_result("O=C1N(Cc2cccc3ccccc23)CCC12CCN(c1cnc3ccccc3n1)CC2")
5.20

====

# assay target: human orexin 1 receptor (Homo sapiens, UniProt O43613)
# Sequence (O43613 1-425): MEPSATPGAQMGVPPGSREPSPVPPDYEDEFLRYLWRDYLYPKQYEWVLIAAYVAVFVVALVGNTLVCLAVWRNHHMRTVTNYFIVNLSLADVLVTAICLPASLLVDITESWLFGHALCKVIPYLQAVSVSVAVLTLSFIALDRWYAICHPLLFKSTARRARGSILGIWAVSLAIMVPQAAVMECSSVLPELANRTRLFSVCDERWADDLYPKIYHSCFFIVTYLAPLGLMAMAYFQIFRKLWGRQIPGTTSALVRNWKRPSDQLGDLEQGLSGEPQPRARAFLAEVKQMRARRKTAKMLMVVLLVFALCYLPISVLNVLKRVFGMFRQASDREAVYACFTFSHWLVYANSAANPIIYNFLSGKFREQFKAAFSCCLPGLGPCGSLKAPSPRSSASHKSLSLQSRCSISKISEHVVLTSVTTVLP
# procedure details: Calcium accumulation in cells (FLIPR), antagonism of orexin A, human orexin 1 receptor
# run conditions: calcium accumulation, antagonism of orexin A, Cheng-Prusoff corrected; read-out: FLIPR hOx1R Ki
pKi: −log10 of the molar value.
Reported pKi values are given for each entry in this list.
outcome measure: pKi

>>> assay_result("Cc1ccc(C)c(CN2C(=O)CCC23CCN(c2nc(C)cc(C)n2)CC3)c1 [Example 8.6]")
5.56
>>> assay_result("COCc1noc(-c2ccccc2CN2CCNC3(CCN(c4nc(C)cc(C)n4)CC3)C2=O)n1 [Example 1.63]")
5.39
>>> assay_result("COc1ccnc(N2CCC3(CC2)OCCN(Cc2c[nH]c4ccccc24)C3=O)n1 [Example 2.5]")
5.81
>>> assay_result("Cc1cc(C)nc(N2CCC3(CC2)NCCN(Cc2nn(C)nc2-c2cccc(OC(C)C)c2)C3=O)n1 [Example 1.79]")
6.78
>>> assay_result("Cc1cc(C)nc(N2CCC3(CC2)NCCN(Cc2n[nH]c4ccccc24)C3=O)n1 [Example 1.50]")
5.93
>>> assay_result("CC(=O)c1cccc(-c2cn(C)nc2CN2CCNC3(CCN(c4nc(C)cc(C)n4)CC3)C2=O)c1 [Example 1.48]")
5.56
>>> assay_result("Cc1cc(C)nc(N2CCC3(CC2)NCCN(Cc2nn(C)cc2-c2cccc(OCC4CC4)c2)C3=O)n1 [Example 1.52]")
6.54
>>> assay_result("COc1cc(C)nc(N2CCC3(CCN(Cc4nn(C)nc4-c4cccc(C)c4)C3=O)C2)n1 (centres unmarked) [Example 5.44]")
7.17
